For each entry below, report its IC50 value.

stdin: Hi! What's the reported IC50 for CCOc1ccc(N(C)c2ccc3c(c2)CCC[C@H]3CNc2cnccc2C(=O)O)cc1 on JMJD3 (Homo sapiens, UniProt O15054)?
stdout: 1000 to 10000 nM

stdin: Hi! What's the reported IC50 for CN(c1ccccc1)c1ccc2c(n1)CCCC2CNc1cnccc1C(=O)O (centres unmarked) on JMJD3 (Homo sapiens, UniProt O15054)?
stdout: 1000 to 10000 nM

stdin: Hi! What's the reported IC50 for CC(C)c1ccc(N(C)c2ccc3c(c2)OCC[C@H]3CNc2cnccc2C(=O)O)cc1 on JMJD3 (Homo sapiens, UniProt O15054)?
stdout: 1000 to 10000 nM

stdin: Hi! What's the reported IC50 for CN(c1ccccc1)c1ccc2c(c1)CCC[C@@H]2CNc1cnccc1C(=O)O on JMJD3 (Homo sapiens, UniProt O15054)?
stdout: 1000 to 10000 nM

stdin: Hi! What's the reported IC50 for Cc1sccc1-c1ccc2c(c1)OCC[C@@H]2CNc1cnccc1C(=O)O on JMJD3 (Homo sapiens, UniProt O15054)?
stdout: 100 to 1000 nM
